Numbers sourced from ChEMBL document CHEMBL5247653.

Test: Drug excretion in urine of Wistar rat assessed as unchanged drug at 3 mg/kg, iv
Type: ADME, organism-based
Conditions: read-out: Drug excretion
Measure name: dose excreted

Please give the measured dose excreted for this molecule: Cc1ccn(CC(=O)N2CCN(c3sc(C(F)(F)F)nc3-c3cnc(C(F)(F)F)nc3)C[C@@H]2CO)n1
1%

====

Assay: Cmax in LPS-induced DBA/1 mouse plasma at 0.06 microg/g, po bid preincubated for 3 days followed by LPS stimulation for 30 mins and measured after 72 hrs by flow cytometry
Format: ADME, organism-based
Parameters: time 6 day, dose 0.06 µg/g, route po
Settings: 0.06 µg/g
Measure name: Cmax (ng/mL)
The response must be a number in ng/mL with no trailing unit.

Please give the measured Cmax for this molecule: Cc1ncn(CC(=O)N2CCN(c3sc(C(F)(F)F)nc3-c3cnc(C(F)(F)F)nc3)C[C@H]2CCO)n1
559

====

Experiment: Cmax in Cynomolgus monkey at 1.0 mg/kg,iv or 1.25 mg/kg, po
Assay type: ADME, organism-based, Macaca fascicularis
Design: dose 1 mg/kg, route iv
Conditions: in vivo
Measure name: Cmax (µg/mL)
The response must be a number in µg/mL with no trailing unit.

Please give the measured Cmax for this compound: Cc1ncn(CC(=O)N2CCN(c3sc(C(F)(F)F)nc3-c3cnc(C(F)(F)F)nc3)C[C@H]2CCO)n1
0.735

====

Assay: Protein binding in human plasma assessed as fraction unbound at 20 ug/ml using 14C-labeled ligand by rapid equilibrium dialysis
Assay type: ADME, cell-free
Details: at 20 µg/mL
Measure name: fraction unbound at 20 ug/ml
Write the value as a bare number.

Please give the measured fraction unbound at 20 ug/ml for this molecule: Cc1ncn(CC(=O)N2CCN(c3sc(C(F)(F)F)nc3-c3cnc(C(F)(F)F)nc3)C[C@H]2CCO)n1
0.4

====

Assay: Metabolic stability in human liver microsomes assessed as intrinsic clearance at 1 uM and measured upto 15 mins in presence of NADPH regenerating system by LC-MS/MS analysis
Format: ADME, Microsome
Conditions: read-out: CLH
Measure name: microsomal CLint at 1 µM

Please give the measured microsomal CLint at 1 µM for this compound: CCc1ncn(CC(=O)N2CCN(c3sc(C(F)(F)F)nc3-c3cnc(C(F)(F)F)nc3)C[C@H]2CO)n1
< 10 µL/min/mg

Please give the measured microsomal CLint at 1 µM for this compound: CCc1ncn(CC(=O)N2CCN(c3sc(C(F)(F)F)nc3-c3cnc(C(F)(F)F)nc3)C[C@@H]2CO)n1
< 10 µL/min/mg

Please give the measured microsomal CLint at 1 µM for this compound: Cc1ccn(CC(=O)N2CCN(c3sc(C(F)(F)F)nc3-c3cnc(C(F)(F)F)nc3)C[C@H]2CCO)n1
19 µL/min/mg

Please give the measured microsomal CLint at 1 µM for this compound: O=C(Cn1cnc(C2CC2)n1)N1CCN(c2sc(C(F)(F)F)nc2-c2cnc(C(F)(F)F)nc2)C[C@H]1CO
< 10 µL/min/mg

====

Biological target: Cytochrome P450 2D6 (Homo sapiens, UniProt P10635)
Sequence (P10635 whole entry): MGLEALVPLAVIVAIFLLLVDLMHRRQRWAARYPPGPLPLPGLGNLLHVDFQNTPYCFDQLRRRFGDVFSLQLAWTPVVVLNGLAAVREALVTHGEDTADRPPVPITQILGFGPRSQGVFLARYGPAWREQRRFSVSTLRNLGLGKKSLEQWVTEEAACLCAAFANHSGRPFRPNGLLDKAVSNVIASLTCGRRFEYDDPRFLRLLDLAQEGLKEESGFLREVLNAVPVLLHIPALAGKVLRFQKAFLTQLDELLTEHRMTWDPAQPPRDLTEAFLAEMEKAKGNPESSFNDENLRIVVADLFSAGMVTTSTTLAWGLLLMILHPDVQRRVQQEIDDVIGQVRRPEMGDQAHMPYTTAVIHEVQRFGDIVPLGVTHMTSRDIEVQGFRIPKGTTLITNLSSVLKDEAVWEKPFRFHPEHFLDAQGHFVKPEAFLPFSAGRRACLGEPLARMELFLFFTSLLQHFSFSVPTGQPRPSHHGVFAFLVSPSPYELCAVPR
Assay: Competitive inhibition of CYP2D6 (unknown origin)
Type: ADME
Measure name: IC50

Please give the measured IC50 for this molecule: Cc1ncn(CC(=O)N2CCN(c3sc(C(F)(F)F)nc3-c3cnc(C(F)(F)F)nc3)C[C@H]2CCO)n1
> 50 µM

====

Molecular target: Voltage-gated inwardly rectifying potassium channel KCNH2 (Homo sapiens, UniProt Q12809)
Sequence (Q12809 whole entry): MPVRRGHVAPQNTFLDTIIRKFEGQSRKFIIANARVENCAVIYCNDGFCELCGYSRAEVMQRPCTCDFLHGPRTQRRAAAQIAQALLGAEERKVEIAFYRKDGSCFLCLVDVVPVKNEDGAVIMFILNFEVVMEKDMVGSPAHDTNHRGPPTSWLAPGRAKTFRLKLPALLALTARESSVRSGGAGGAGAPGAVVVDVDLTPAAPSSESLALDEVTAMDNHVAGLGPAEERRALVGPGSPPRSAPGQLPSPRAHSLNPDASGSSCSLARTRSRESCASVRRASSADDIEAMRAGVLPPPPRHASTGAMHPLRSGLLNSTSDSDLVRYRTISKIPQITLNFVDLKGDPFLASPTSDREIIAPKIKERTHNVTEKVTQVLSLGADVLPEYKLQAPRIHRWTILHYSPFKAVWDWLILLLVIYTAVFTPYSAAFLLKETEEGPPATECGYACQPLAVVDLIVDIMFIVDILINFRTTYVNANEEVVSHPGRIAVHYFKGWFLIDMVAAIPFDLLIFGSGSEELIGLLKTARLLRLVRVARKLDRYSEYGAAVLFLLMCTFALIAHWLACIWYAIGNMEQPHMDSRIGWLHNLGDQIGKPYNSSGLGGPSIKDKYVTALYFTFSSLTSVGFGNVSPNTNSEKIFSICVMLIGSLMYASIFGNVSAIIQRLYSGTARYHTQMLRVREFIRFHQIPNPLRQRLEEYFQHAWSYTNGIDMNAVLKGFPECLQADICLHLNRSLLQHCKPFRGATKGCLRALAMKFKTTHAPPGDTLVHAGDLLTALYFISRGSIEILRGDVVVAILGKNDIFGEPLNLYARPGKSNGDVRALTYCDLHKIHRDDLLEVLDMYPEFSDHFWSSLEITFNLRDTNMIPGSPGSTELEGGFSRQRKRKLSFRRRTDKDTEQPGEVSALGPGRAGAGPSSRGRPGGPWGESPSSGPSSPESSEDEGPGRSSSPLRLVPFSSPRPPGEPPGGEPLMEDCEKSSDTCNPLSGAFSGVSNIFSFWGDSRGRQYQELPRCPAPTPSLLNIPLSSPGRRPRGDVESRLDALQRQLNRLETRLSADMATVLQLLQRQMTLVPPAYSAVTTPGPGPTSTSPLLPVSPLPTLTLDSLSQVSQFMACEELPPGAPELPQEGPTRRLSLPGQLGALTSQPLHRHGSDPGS
Assay: Inhibition of human ERG stably expressed in CHO cells at -80 mV holding voltage by automated QPatch electrophysiological assay
Format: toxicity, cell-based
pIC50: −log10 of the molar value.
Give yes when the value for pIC50 is at least 5. Give no when it is less.

Check if pIC50 >= 5 (inclusive). Item: CC(C)c1ncn(CC(=O)N2CCN(c3sc(C(F)(F)F)nc3-c3cnc(C(F)(F)F)nc3)C[C@H]2CO)n1
no

Check if pIC50 >= 5 (inclusive). Item: CCc1nncn1CC(=O)N1CCN(c2sc(C(F)(F)F)nc2-c2cnc(C(F)(F)F)nc2)C[C@H]1C
no

Check if pIC50 >= 5 (inclusive). Item: CC(C)c1ncn(CC(=O)N2CCN(c3sc(C(F)(F)F)nc3-c3cnc(C(F)(F)F)nc3)C[C@@H]2CO)n1
no

Check if pIC50 >= 5 (inclusive). Item: Cc1ncnn1CC(=O)N1CCN(c2sc(C(F)(F)F)nc2-c2cnc(C(F)(F)F)nc2)C[C@H]1C
no

Check if pIC50 >= 5 (inclusive). Item: COCc1ncn(CC(=O)N2CCN(c3sc(C(F)(F)F)nc3-c3cnc(C(F)(F)F)nc3)C[C@H]2C)n1
no

Check if pIC50 >= 5 (inclusive). Item: CC(C)c1ncn(CC(=O)N2CCN(c3sc(C(F)(F)F)nc3-c3cnc(C(F)(F)F)nc3)C[C@H]2C)n1
yes

Check if pIC50 >= 5 (inclusive). Item: Cc1ncn(CC(=O)N2CCN(c3sc(C(F)(F)F)nc3-c3cnc(C(F)(F)F)nc3)C[C@H]2CCO)n1
no

Check if pIC50 >= 5 (inclusive). Item: Cc1ccn(CC(=O)N2CCN(c3sc(C(F)(F)F)nc3-c3cnc(C(F)(F)F)nc3)C[C@H]2CCO)n1
yes

Check if pIC50 >= 5 (inclusive). Item: CCc1ncn(CC(=O)N2CCN(c3sc(C(F)(F)F)nc3-c3cnc(C(F)(F)F)nc3)C[C@@H]2CO)n1
no

Check if pIC50 >= 5 (inclusive). Item: Cc1ccn(CC(=O)N2CCN(c3sc(C(F)(F)F)nc3-c3cnc(C(F)(F)F)nc3)C[C@H]2C)n1
yes

====

Target: C-X-C chemokine receptor type 3 (Rattus norvegicus, UniProt Q9JII9)
Sequence (Q9JII9 whole entry): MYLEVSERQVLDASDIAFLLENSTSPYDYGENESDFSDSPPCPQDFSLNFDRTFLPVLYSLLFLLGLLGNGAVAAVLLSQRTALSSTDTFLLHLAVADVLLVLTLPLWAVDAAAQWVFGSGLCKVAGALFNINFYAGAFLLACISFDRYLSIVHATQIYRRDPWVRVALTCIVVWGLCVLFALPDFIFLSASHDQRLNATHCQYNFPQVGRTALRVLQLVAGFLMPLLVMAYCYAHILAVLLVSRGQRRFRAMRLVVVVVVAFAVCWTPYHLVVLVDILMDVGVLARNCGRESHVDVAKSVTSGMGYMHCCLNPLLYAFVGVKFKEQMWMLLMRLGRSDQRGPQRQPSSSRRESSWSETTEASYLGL
Experiment: Antagonist activity at rat CXCR3 expressed in CHO-K1 cells assessed as reduction in CXCL10 induced calcium flux by FLIPR method
Format: cell-based
Measure name: pIC50
Note: pIC50 values are expressed as the negative base-10 logarithm of concentration in M.

Please give the measured pIC50 for this compound: Cc1ncn(CC(=O)N2CCN(c3sc(C(F)(F)F)nc3-c3cnc(C(F)(F)F)nc3)C[C@H]2CCO)n1
8.66

====

Assay: Cmax in LPS-induced DBA/1 mouse plasma at 0.02 microg/g, po bid preincubated for 3 days followed by LPS stimulation for 30 mins and measured after 72 hrs by flow cytometry
Format: ADME, organism-based
Set-up: time 6 day, dose 0.02 µg/g, route po
Details: 0.02 µg/g
Measure name: Cmax (ng/mL)
The response must be a number in ng/mL with no trailing unit.

Please give the measured Cmax for this molecule: Cc1ncn(CC(=O)N2CCN(c3sc(C(F)(F)F)nc3-c3cnc(C(F)(F)F)nc3)C[C@H]2CCO)n1
173

====

Assay: Protein binding in rat plasma assessed as fraction unbound at 1 uM incubated for 6 hrs by rapid equilibrium dialysis based LC-MS/MS analysis
Type: ADME, cell-free
Would you mind telling me the reported fraction unbound at 6 h, 1 µM of each entry?

Please give the measured fraction unbound at 6 h, 1 µM for this molecule: Cc1ncn(CC(=O)N2CCN(c3sc(C(F)(F)F)nc3-c3cnc(C(F)(F)F)nc3)C[C@H]2CCO)n1
0.09

Please give the measured fraction unbound at 6 h, 1 µM for this molecule: CCc1ncn(CC(=O)N2CCN(c3sc(C(F)(F)F)nc3-c3cnc(C(F)(F)F)nc3)C[C@H]2CCO)n1
0.045

Please give the measured fraction unbound at 6 h, 1 µM for this molecule: Cc1ccn(CC(=O)N2CCN(c3sc(C(F)(F)F)nc3-c3cnc(C(F)(F)F)nc3)C[C@@H]2CO)n1
0.01

====

Assay: Half life in Beagle dog at 2.5 mg/kg,iv or 2.5 mg/kg, po
Type: ADME, organism-based, Canis lupus familiaris
Conditions: in vivo
Measure name: half-life (h)
The response must be a number in h with no trailing unit.

Please give the measured half-life for this compound: Cc1ncn(CC(=O)N2CCN(c3sc(C(F)(F)F)nc3-c3cnc(C(F)(F)F)nc3)C[C@H]2CCO)n1
5.3

====

Would you mind telling me the reported microsomal CLint at 1 µM of each entry?
Molecular target: CYP3A4 (Homo sapiens, UniProt P08684)
Sequence (P08684 whole entry): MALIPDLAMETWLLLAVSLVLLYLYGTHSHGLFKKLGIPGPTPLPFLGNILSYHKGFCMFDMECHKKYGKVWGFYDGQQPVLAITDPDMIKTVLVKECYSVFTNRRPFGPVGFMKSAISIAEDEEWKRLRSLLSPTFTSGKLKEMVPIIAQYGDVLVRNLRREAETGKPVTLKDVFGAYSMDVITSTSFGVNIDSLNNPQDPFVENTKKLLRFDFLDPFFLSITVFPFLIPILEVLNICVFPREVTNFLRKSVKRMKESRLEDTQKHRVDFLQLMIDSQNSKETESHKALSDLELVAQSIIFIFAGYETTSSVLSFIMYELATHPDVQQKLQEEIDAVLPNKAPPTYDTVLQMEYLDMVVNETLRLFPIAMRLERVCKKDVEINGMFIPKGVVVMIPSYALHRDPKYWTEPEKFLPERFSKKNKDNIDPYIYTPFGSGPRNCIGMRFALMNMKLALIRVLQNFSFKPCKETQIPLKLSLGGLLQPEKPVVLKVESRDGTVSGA
Experiment: […] recombinant human CYP3A4 mediated drug metabolism in human liver microsomes assessed as intrinsic clearance at 1 uM incubated for 45 mins in presence of NADPH regenerating system by LC-MS/MS analysis
Format: ADME, Microsome
Conditions: read-out: CLH
The response must be a number in µL/min/mg with no trailing unit.

Please give the measured microsomal CLint at 1 µM for this compound: Cc1ccn(CC(=O)N2CCN(c3sc(C(F)(F)F)nc3-c3cnc(C(F)(F)F)nc3)C[C@@H]2CCO)n1
0.56

Please give the measured microsomal CLint at 1 µM for this compound: CCc1ncn(CC(=O)N2CCN(c3sc(C(F)(F)F)nc3-c3cnc(C(F)(F)F)nc3)C[C@@H]2CO)n1
0.27

Please give the measured microsomal CLint at 1 µM for this compound: Cc1ccn(CC(=O)N2CCN(c3sc(C(F)(F)F)nc3-c3cnc(C(F)(F)F)nc3)C[C@H]2CO)n1
0.72

Please give the measured microsomal CLint at 1 µM for this compound: CCc1ncn(CC(=O)N2CCN(c3sc(C(F)(F)F)nc3-c3cnc(C(F)(F)F)nc3)C[C@H]2CCO)n1
0.33

Please give the measured microsomal CLint at 1 µM for this compound: Cc1ccn(CC(=O)N2CCN(c3sc(C(F)(F)F)nc3-c3cnc(C(F)(F)F)nc3)C[C@@H]2CO)n1
1.18

Please give the measured microsomal CLint at 1 µM for this compound: CC(C)c1ncn(CC(=O)N2CCN(c3sc(C(F)(F)F)nc3-c3cnc(C(F)(F)F)nc3)C[C@@H]2CCO)n1
1.9

Please give the measured microsomal CLint at 1 µM for this compound: CC(C)c1ncn(CC(=O)N2CCN(c3sc(C(F)(F)F)nc3-c3cnc(C(F)(F)F)nc3)C[C@H]2CO)n1
1.2
